Tested on: OS-RC-2 (Kidney Carcinoma)
PROTOCOL: combination Emax (second highest fraction inhibited in the dose matrix, 72 h); higher = more inhibition; extreme values may be limits of the assay
combination Emax below 0.4 gives rule not met; combination Emax at or above it gives rule met.

# count of solved cases: 4
CN(CCO)CC[C@H](CSc1ccccc1)Nc1ccc(S(=O)(=O)NC(=O)c2ccc(N3CCC([C@@H](O)c4ccccc4-c4ccc(Cl)cc4)CC3)cc2)cc1S(=O)(=O)C(F)(F)F [AZD4320] + C1CN(CCC1(C(=O)N[C@@H](CCO)C2=CC=C(C=C2)Cl)N)C3=NC=NC4=C3C=CN4 [Capivasertib] (first compound max 1 µM, 7x7, partner max 3 µM); rule not met
CC1(C)CCC(CN2CCN(c3ccc(C(=O)NS(=O)(=O)c4ccc(NCC5CCOCC5)c([N+](=O)[O-])c4)c(Oc4cnc5[nH]ccc5c4)c3)CC2)=C(c2ccc(Cl)cc2)C1 [Venetoclax] + Cn1cnc2c(F)c(Nc3ccc(Br)cc3Cl)c(C(=O)NOCCO)cc21 [Selumetinib] (first compound max 1 µM, 7x7, partner max 3 µM); rule not met
Cc1c2c(nn1C)CSCc1cc(n(C)n1)CSc1cc(c3ccccc3c1)OCCCc1c(C(=O)O)n(C)c3c-2c(Cl)ccc13 [AZD5991] + C[C@@H](Nc1cc(F)cc(F)c1)c1cc(C(=O)N(C)C)cc2c(=O)cc(N3CCOCC3)oc12 [AZD8186] (first compound max 1 µM, 7x7, partner max 3 µM); rule met
C=CCn1c(=O)c2cnc(Nc3ccc(N4CCN(C)CC4)cc3)nc2n1-c1cccc(C(C)(C)O)n1 [AZD1775] + O=C(c1cc(Cc2n[nH]c(=O)c3ccccc23)ccc1F)N1CCN(C(=O)C2CC2)CC1 [Olaparib] (first compound max 1 µM, partner max 10 µM); rule not met

Dear colleague, could you confirm whether COc1cccc(OCCCN)c1-c1cc(Nc2cnc(C#N)cn2)n[nH]1 [Prexasertib] + Cc1cc2ncnn2cc1Nc1ncc2c(n1)n(C1CCOCC1)c(=O)n2C [AZD7648] (first compound max 1 µM, 7x7, partner max 10 µM) has combination Emax at or above 0.4?
rule met

What about this compound? NC1(C(=O)N[C@@H](CCO)c2ccc(Cl)cc2)CCN(c2ncnc3[nH]ccc23)CC1 [Capivasertib] + C[C@@H]1COCCN1C2=NC(=NC(=C2)C3(CC3)[S@](=N)(=O)C)C4=C5C=CNC5=NC=C4 [AZD6738] (first compound max 10 µM, 7x7, partner max 10 µM)
rule met

What about this compound? COc1nnc2ccc(N3CCC(c4ccc(OCCN5CCN(C)C(=O)[C@H]5C)cc4)CC3)nn12 [AZD5153] + CCN(CCO)CCCOc1ccc2c(Nc3cc(CC(=O)Nc4cccc(F)c4)[nH]n3)ncnc2c1 [AZD2811] (first compound max 1 µM, 7x7, partner max 1 µM)
rule not met

What about this compound? CS(=O)(=O)CCNCc1ccc(-c2ccc3ncnc(Nc4ccc(OCc5cccc(F)c5)c(Cl)c4)c3c2)o1 [Lapatinib] + C[C@@H](Oc1cc(-c2cnn(C3CCNCC3)c2)cnc1N)c1c(Cl)ccc(F)c1Cl [Crizotinib] (first compound max 10 µM, 7x7, partner max 10 µM)
rule met

----------
System: TT2609-C02 (Thyroid Gland Carcinoma);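 note: after 72 h of two-drug dosing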
PROTOCOL: Bliss excess, mean over the matrix (fraction); higher = more synergy
Catalogue of compounds with associated Bliss excess
Lab note: write the figure by itself, no unit.

NC1(C(=O)N[C@@H](CCO)c2ccc(Cl)cc2)CCN(c2ncnc3[nH]ccc23)CC1 [Capivasertib] + CC(=O)c1c(C)c2cnc(Nc3ccc(N4CCNCC4)cn3)nc2n(C2CCCC2)c1=O [Palbociclib] (first compound max 10 µM, 7x7, partner max 10 µM); -0.0398
C[C@@H](c1ccc2nccn2c1)n1nnc2ncc(-c3cnn(C)c3)nc21 [Savolitinib] + CC1(C)CCC(CN2CCN(c3ccc(C(=O)NS(=O)(=O)c4ccc(NCC5CCOCC5)c([N+](=O)[O-])c4)c(Oc4cnc5[nH]ccc5c4)c3)CC2)=C(c2ccc(Cl)cc2)C1 [Venetoclax] (first compound max 1 µM, 7x7, partner max 1 µM); -0.1
CN(CCO)CC[C@H](CSc1ccccc1)Nc1ccc(S(=O)(=O)NC(=O)c2ccc(N3CCC([C@@H](O)c4ccccc4-c4ccc(Cl)cc4)CC3)cc2)cc1S(=O)(=O)C(F)(F)F [AZD4320] + C[C@@H]1COCCN1C2=NC(=NC(=C2)C3(CC3)[S@](=N)(=O)C)C4=C5C=CNC5=NC=C4 [AZD6738] (first compound max 1 µM, 7x7, partner max 10 µM); -0.0542
Cc1c2c(nn1C)CSCc1cc(n(C)n1)CSc1cc(c3ccccc3c1)OCCCc1c(C(=O)O)n(C)c3c-2c(Cl)ccc13 [AZD5991] + C=CCn1c(=O)c2cnc(Nc3ccc(N4CCN(C)CC4)cc3)nc2n1-c1cccc(C(C)(C)O)n1 [AZD1775] (first compound max 1 µM, partner max 1 µM); 0.0087

Entry COc1cccc(OCCCN)c1-c1cc(Nc2cnc(C#N)cn2)n[nH]1 [Prexasertib] + CN(C)CCCOc1ccc(-c2ccc3ncc4c(c3c2)n(C2CCOCC2)c(=O)n4C)cn1 [AZD0156] (first compound max 1 µM, 7x7, partner max 1 µM) : reported Bliss excess = ?
-0.0426

What about this compound? C[C@@H](c1ccc2nccn2c1)n1nnc2ncc(-c3cnn(C)c3)nc21 [Savolitinib] + CN(CC[C@H](CSC1=CC=CC=C1)NC2=C(C=C(C=C2)S(=O)(=O)NC(=O)C3=CC=C(C=C3)N4CCC(CC4)[C@H](C5=CC=CC=C5C6=CC=C(C=C6)Cl)O)S(=O)(=O)C(F)(F)F)CCO [AZD4320] (first compound max 1 µM, 7x7, partner max 1 µM)
-0.103

What about this compound? Cc1c2c(nn1C)CSCc1cc(n(C)n1)CSc1cc(c3ccccc3c1)OCCCc1c(C(=O)O)n(C)c3c-2c(Cl)ccc13 [AZD5991] + CN(C)CCCOc1ccc(-c2ccc3ncc4c(c3c2)n(C2CCOCC2)c(=O)n4C)cn1 [AZD0156] (first compound max 1 µM, 7x7, partner max 1 µM)
0.0199
